Values compiled from patent US20220340564A1.

tested on: Mycobacterium tuberculosis strain EH4.0 expressing green-fluorescent protein (GFP); test: microbe, parasite or virus in culture; assay type: cell-based; details: 168 h, read-out: pIC50 (converted)
Classify: Fulfilled when IC50 is strictly less than 30 nM; Not fulfilled when IC50 is not.

Exam item: hey, is IC50 for CCc1nc2cc(OC)c(Cl)cn2c1C(=O)NCc1ccc(N2CCN(S(=O)(=O)C(F)(F)F)C=N2)c(F)c1 lower than 30 nM or not?
Marked response: Not fulfilled

Exam item: Say whether its IC50 is strictly beneath 30 nM. Entry: CCc1nc2ccc(Cl)cn2c1C(=O)NCc1ccc(N2C=NN(C)CC2)cc1
Marked response: Not fulfilled

Exam item: Is the reported IC50 for CCc1nc2ccc(Cl)cn2c1C(=O)NCc1ccc(N2CCN(S(=O)(=O)C(F)(F)F)C(CCOC)=N2)cc1 strictly below 30 nM?
Marked response: Fulfilled

Exam item: Hello, I'm reviewing records and need to know if IC50 of CCc1nc2ccc(Cl)cn2c1C(=O)NCc1ccc(N2CCN(S(=O)(=O)C(F)(F)F)C(C)=N2)c(F)c1 is below 30 nM. Could you check?
Marked response: Fulfilled

Exam item: IC50 strictly < 30 nM for this compound? CCOc1ccc2nc(CC)c(C(=O)NCc3ccc(N4CCN(S(=O)(=O)C(F)(F)F)C=N4)cc3)n2c1
Marked response: Fulfilled

Exam item: Lab log: compare recorded IC50 with 30 nM; is it strictly lower for CCc1nc2ccc(Cl)cn2c1C(=O)NCc1ccc(N2CCN(c3nccs3)C=N2)cc1 ?
Marked response: Fulfilled

Exam item: Field: below-cutoff. Rule: recorded IC50 strictly less than 30 nM. Subject: CCc1nc2cc(OC)c(Cl)cn2c1C(=O)NCc1ccc(N2CCN(S(=O)(=O)C(F)(F)F)C=N2)cc1
Marked response: Not fulfilled

Exam item: Does the reported IC50 of COC1=NN(c2ccc(CNC(=O)c3c(C(F)(F)F)nc4ccccn34)cc2)CCN1S(=O)(=O)C(F)(F)F stay below 30 nM?
Marked response: Fulfilled

Exam item: Here's an entry: CCc1nc2cc(OC)ccn2c1C(=O)NCc1ccc(N2CCN(S(=O)(=O)C(F)(F)F)C(OC)=N2)c(F)c1 . Is its IC50 below 30 nM?
Marked response: Fulfilled

Exam item: Record CCc1nc2cc(Cl)c(C)cn2c1C(=O)NCc1ccc(N2CCN(S(=O)(=O)C(F)(F)F)C(OC)=N2)c(F)c1 : is its IC50 strictly below 30 nM?
Marked response: Fulfilled

Exam item: Is the reported IC50 for CCc1nc2ccc(Cl)cn2c1C(=O)NCc1ccc(N2CCN(C)C(C)=N2)cc1 strictly below 30 nM?
Marked response: Not fulfilled

Exam item: I'd appreciate it if you could check whether CCc1nc2ccc(Cl)cn2c1C(=O)NCc1ccc(N2CCN(S(=O)(=O)C(F)(F)F)C=N2)cc1F has IC50 smaller than 30 nM.
Marked response: Fulfilled

Exam item: Please state whether IC50 is below 30 nM for CCc1nc2c(F)cc(C)cn2c1C(=O)NCc1cnc(N2CCNC=N2)c(F)c1
Marked response: Not fulfilled

Exam item: Find out if reported IC50 for CCc1nc2cc(C)c(Cl)cn2c1C(=O)NCc1ccc(N2CCN(S(=O)(=O)C(F)(F)F)C=N2)c(F)c1 is less than 30 nM
Marked response: Fulfilled

Exam item: Consider the compound CCc1nc2ncc(Cl)cn2c1C(=O)NCc1ccc(N2CCN(S(=O)(=O)C(F)(F)F)C=N2)cc1 . Is its IC50 strictly less than 30 nM?
Marked response: Fulfilled

Exam item: Regarding CCc1nc2cc(OC)ccn2c1C(=O)NCc1ccc(N2CCN(S(=O)(=O)C(F)(F)F)C(OC)=N2)cc1 , kindly confirm whether its IC50 is beneath 30 nM.
Marked response: Not fulfilled

Exam item: Please determine if Cc1cc(F)c2ncc(C(=O)NCc3ccc(N4CCN(S(=O)(=O)C(F)(F)F)C=N4)c(F)c3)n2c1 is below 30 nM in terms of IC50.
Marked response: Not fulfilled

Exam item: Decide: IC50 of Cc1cc(F)c2ncc(C(=O)NCc3cnc(N4CCN(S(=O)(=O)C(F)(F)F)C=N4)c(F)c3)n2c1 strictly below 30 nM?
Marked response: Not fulfilled

Exam item: Hello, is IC50 of the following compound strictly smaller than 30 nM? CCc1nc2ccc(F)cn2c1C(=O)NCc1ccc(N2CCN(S(=O)(=O)C(F)(F)F)C=N2)c(F)c1
Marked response: Fulfilled

Exam item: Decide: IC50 of CCc1nc2ncc(COC)cn2c1C(=O)NCc1ccc(N2CCN(S(=O)(=O)C(F)(F)F)C=N2)cc1 strictly below 30 nM?
Marked response: Fulfilled

Exam item: For CCc1nc2n(c1C(=O)NCc1ccc(N3CCN(S(=O)(=O)CCOC)C=N3)cc1)CCCC2 , is the recorded IC50 below the cut-off of 30 nM?
Marked response: Not fulfilled

Exam item: Strictly below 30 nM: is that where IC50 of CCc1nc2nc(C)c(C)cn2c1C(=O)NCc1ccc(N2CCN(S(=O)(=O)C(F)(F)F)C(OC)=N2)c(F)c1 sits?
Marked response: Fulfilled

Exam item: Lab log: compare recorded IC50 with 30 nM; is it strictly lower for CCc1nc2ccc(C#N)cn2c1C(=O)NCc1ccc(N2CCN(S(=O)(=O)C(F)(F)F)C(OC)=N2)cc1 ?
Marked response: Not fulfilled

Exam item: Strictly below 30 nM: is that where IC50 of CCc1nc2cc(OC)c(Cl)cn2c1C(=O)NCc1ccc(N2CCN(S(=O)(=O)C(F)(F)F)C(OC)=N2)c(F)c1 sits?
Marked response: Not fulfilled

Exam item: Does CCc1nc2ccc(N3CCCC3)cn2c1C(=O)NCc1ccc(N2CCN(S(=O)(=O)C(F)(F)F)C=N2)cc1 have IC50 strictly under 30 nM?
Marked response: Not fulfilled

Exam item: Take the compound CCc1nc2nc(C)c(Cl)cn2c1C(=O)NCc1ccc(N2CCNC=N2)c(F)c1 and say whether its IC50 is less than 30 nM.
Marked response: Not fulfilled
